Let's look at some compounds and their measured IC50.
biological target: Cbl-b (Homo sapiens); assay: Cbl-b activity assay (Cbl-b inhibition assay), TR-FRET of Cbl-b interaction with UbcH5B-Ub; format: biochemical; settings: assay buffer with 100 mM NaCl, 60 nM Src kinase; read-out: Cbl-b activity IC50
Sequence (Q13191 36-427): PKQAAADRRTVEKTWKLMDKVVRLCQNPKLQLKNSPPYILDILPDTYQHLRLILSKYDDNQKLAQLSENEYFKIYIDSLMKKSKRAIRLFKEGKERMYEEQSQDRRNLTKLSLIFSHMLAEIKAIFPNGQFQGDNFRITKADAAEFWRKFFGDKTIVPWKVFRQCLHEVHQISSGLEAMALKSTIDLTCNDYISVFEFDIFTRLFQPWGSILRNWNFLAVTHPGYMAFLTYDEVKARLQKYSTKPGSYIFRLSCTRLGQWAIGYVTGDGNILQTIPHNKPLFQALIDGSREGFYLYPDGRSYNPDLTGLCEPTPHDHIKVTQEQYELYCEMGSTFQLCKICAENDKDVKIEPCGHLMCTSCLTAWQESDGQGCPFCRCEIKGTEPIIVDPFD

- compound: "CC(Cn1[nH]cnc1=O)c1cccc(NC(=O)c2cccc(C(F)(F)F)n2)c1 (centres unmarked)"
  endpoint-name: "IC50"
  endpoint-result: "3000 to 10000 nM"

## Input Dear colleague, I am looking for the recorded IC50 of the following compound: C[C@H](Cc1ncnn1C)c1cccc(N2Cc3c(cccc3C(F)(F)F)C2=O)c1
## Output 3000 to 10000 nM

## Input Dear colleague, I am looking for the recorded IC50 of the following compound: Cc1nc2c(o1)CCN(Cc1cc3c(c(C(F)(F)F)c1)CN(c1cccc(C4(Cc5nncn5C)COC4)c1)C3=O)C2
## Output < 100 nM

## Input Dear colleague, I am looking for the recorded IC50 of the following compound: CC(C)Nc1cc([C@H](C)Cc2nncn2C)cc(N2Cc3c(cccc3C(F)(F)F)C2=O)n1
## Output < 100 nM

## Input Dear colleague, I am looking for the recorded IC50 of the following compound: C[C@@H](Sc1nncn1C)c1cc(F)cc(N2Cc3c(cccc3C(F)(F)F)C2=O)c1 [Compound 168b]
## Output 1000 to 3000 nM

# credit: patent US20220324835A1
